Task for the reader: assign each of the following variants its reported polymerase ribozyme fitness (log ratio).
B1: TPR 5TU (parent)
chain: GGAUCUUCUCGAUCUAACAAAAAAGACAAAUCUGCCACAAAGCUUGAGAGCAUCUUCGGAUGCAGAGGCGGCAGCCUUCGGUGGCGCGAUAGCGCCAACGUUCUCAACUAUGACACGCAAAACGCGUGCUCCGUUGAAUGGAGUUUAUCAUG

# Variants of: B1
# experiment description: polymerase ribozyme fitness, log enrichment relative to wild type (log ratio); higher = more active; in vitro selection for triplet polymerase activity
Variants at the floor of the assay were thinned out.

// known answers, use as guide
mutation label	measurement name	observed value
C27G U53A U102A	polymerase ribozyme fitness (log ratio)	≤ -4.2
U55A A113U A121G U139G G141U U144A	polymerase ribozyme fitness (log ratio)	≤ -4.2
G94U A97G U127A A150U	polymerase ribozyme fitness (log ratio)	≤ -4.2

Batch request: polymerase ribozyme fitness (log ratio) per item, same order as input.
1. A47C G141A
2. C93A C96U
3. C93A C105U
4. C35U A41C U53A C75G C114U G136U
5. U13G C38A C93G C116G A122G
6. A28U A40C C75G C87A C95U C105G A121U

-1.5
-3.3
-2.67
≤ -4.2
≤ -4.2
≤ -4.2
